Origin of values: ChEMBL document CHEMBL5104182

test: Cmax in Sprague-Dawley rat at 10 mg/kg, po upto 24 hrs by HPLC analysis; assay type: ADME, organism-based; set-up: time < 24 hrs, dose 10 mg/kg, route po; details: in vivo
observation-type: Cmax (ng/mL)
Lab book: enter the figure in ng/mL, no units written.

Ask: Which measured Cmax value corresponds to Nc1ccc(Oc2ccc(NC(=O)Nc3cccc(C(F)(F)F)c3)cc2)cn1 ?
Result: 453

###

biological target: Cyclin-dependent kinase 8 (Homo sapiens, UniProt P49336)
Sequence (P49336 whole entry): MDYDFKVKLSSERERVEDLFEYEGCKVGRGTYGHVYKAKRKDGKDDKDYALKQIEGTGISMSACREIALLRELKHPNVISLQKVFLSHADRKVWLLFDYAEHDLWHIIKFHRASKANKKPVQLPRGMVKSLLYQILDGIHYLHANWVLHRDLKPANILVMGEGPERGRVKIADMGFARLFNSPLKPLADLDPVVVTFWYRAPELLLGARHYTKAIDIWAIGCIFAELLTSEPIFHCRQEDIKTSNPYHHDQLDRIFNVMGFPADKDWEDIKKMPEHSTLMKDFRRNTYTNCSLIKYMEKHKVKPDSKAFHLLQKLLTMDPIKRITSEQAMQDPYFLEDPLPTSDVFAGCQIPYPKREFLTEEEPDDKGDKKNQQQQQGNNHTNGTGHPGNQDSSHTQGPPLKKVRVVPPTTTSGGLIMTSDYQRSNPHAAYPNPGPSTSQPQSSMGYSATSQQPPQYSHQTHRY
observation-type: IC50 (µM)
# number only, unit µM dropped from output

Ask: Short answer please: IC50, Cyclin-dependent kinase 8 (Homo sapiens, UniProt P49336), entry Nc1ccc(Oc2ccc(NC(=O)Nc3cccc(C(F)(F)F)c3)cc2)cn1
Result: 0.0465

###

experiment: MRT in Sprague-Dawley rat at 10 mg/kg, po upto 24 hrs by HPLC analysis; format: ADME, organism-based; details: in vivo
observation-type: MRT (h)
The response must be a number in h with no trailing unit.

Ask: Give the measured MRT of Nc1ccc(Oc2ccc(NC(=O)Nc3cccc(C(F)(F)F)c3)cc2)cn1 .
Result: 1.6

###

experiment: AUC (0 to infinitive) in Sprague-Dawley rat at 10 mg/kg, po upto 24 hrs by HPLC analysis; assay type: ADME, organism-based; parameters: dose 10 mg/kg, time < 24 hrs, route po; conditions: in vivo
observation-type: AUC(0-inf) (ng·h/mL)
Express the result in ng·h/mL but write the number alone.

Ask: I'd like to know its AUC(0-inf). The molecule in question is Nc1ccc(Oc2ccc(NC(=O)Nc3cccc(C(F)(F)F)c3)cc2)cn1
Result: 665

###

test: Oral bioavailability in Sprague-Dawley rat at 10 mg/kg upto 24 hrs by HPLC analysis; type: ADME, organism-based; conditions: in vivo
observation-type: bioavailability (%)
Response body: numeric value in %, unit text excluded.

Ask: I would be grateful if you could share the reported bioavailability for Nc1ccc(Oc2ccc(NC(=O)Nc3cccc(C(F)(F)F)c3)cc2)cn1 .
Result: 31.7

###

Catalogue of compounds with associated GI50
tested on: CT26; test: Antiproliferative activity against […] cells assessed as cell viability incubated for 48 hrs by MTT assay; type: functional; details: Mus musculus

Here is how some compounds turned out for GI50.
{"compound": "CNC(=O)c1cc(Oc2ccc(NC(=O)Nc3ccc(Cl)c(C(F)(F)F)c3)cc2)ccn1 [SORAFENIB]", "GI50": "30.2 µM"}
{"compound": "Nc1ccc(Oc2cccc(NC(=O)Nc3cccc(C(F)(F)F)c3)c2)cn1", "GI50": "6.9 µM"}
{"compound": "O=C(Nc1ccc(Oc2cnc3[nH]ccc3c2)cc1)Nc1cccc(C(F)(F)F)c1", "GI50": "5.3 µM"}
{"compound": "CC(=O)Nc1ccc(Oc2ccc(NC(=O)Nc3cccc(C(F)(F)F)c3)cc2)cn1", "GI50": "42.7 µM"}
{"compound": "Nc1ccc(Oc2cccc(NC(=O)Nc3ccc(Cl)c(Cl)c3)c2)cn1", "GI50": "32.4 µM"}

Ask: Consider the compound shown here: Nc1ccc(Oc2cccc(NC(=O)Nc3ccc(F)c(C(F)(F)F)c3)c2)cn1 What is its recorded GI50?
Result: 25.5 µM

Ask: Quick check: GI50 of Nc1ccc(Oc2cccc(NC(=O)Nc3ccccc3F)c2)cn1 ?
Result: 83.1 µM
